test system: norepinephrine-induced death in rats; assay: norepinephrine antagonism test in rats (antihypertensive activity); type: in vivo, rat (male Wister); details: Rattus norvegicus, ip, 2 h, read-out: ED50 (norepinephrine antagonistic antihypertensive activity)
Reported ED50 values for the following molecules.
Could you give me the number in mg/kg? Just the number is fine.

Check out these entries, answers already filled in.
{"MOLECULE": "Clc1cnn(CCCCN2CCN(c3ccccc3Cl)CC2)c1 [Example 37]", "EXPERIMENTAL_SYSTEM": "norepinephrine-induced death in rats", "MEASURE_UNIT": "mg/kg", "ED50": 1.9}
{"MOLECULE": "c1ccc(CC2=NCCN2)cc1 [Tolazoline, reference compound]", "EXPERIMENTAL_SYSTEM": "norepinephrine-induced death in rats", "MEASURE_UNIT": "mg/kg", "ED50": 2.97}
{"MOLECULE": "Clc1cnn(CCCCN2CCN(c3ccccc3)CC2)c1 [Example 35]", "EXPERIMENTAL_SYSTEM": "norepinephrine-induced death in rats", "MEASURE_UNIT": "mg/kg", "ED50": 4.1}
{"MOLECULE": "COc1ccccc1N1CCN(CCCNc2cc(C)nn2C)CC1 [Example 45]", "EXPERIMENTAL_SYSTEM": "norepinephrine-induced death in rats", "MEASURE_UNIT": "mg/kg", "ED50": 2.8}
{"MOLECULE": "COc1ccccc1N1CCN(CCCCn2cccc2)CC1 [Example 33]", "EXPERIMENTAL_SYSTEM": "norepinephrine-induced death in rats", "MEASURE_UNIT": "mg/kg", "ED50": 2.23}

# molecule COc1ccccc1N1CCN(CCCCn2cc(Cl)cn2)CC1 [Example 29] ; its ED50 = 0.46

// recorded ED50 for COc1ccc(N2CCN(CCCCn3c(C)nc(Cl)c3Cl)CC2)cc1 [Example 28] : 14

// ED50 lookup, molecule = O=C(O)c1cnn(CCCCN2CCN(c3ncccn3)CC2)c1 [Example 6] , result: 31.7

Reported ED50 ( c1cnc(N2CCN(CCCCn3cnc4ncccc43)CC2)nc1 [Example 18] ) = 3.97

Per the records, this molecule ( c1ccc(N2CCN(CCCCn3cccc3)CC2)cc1 [Example 34] ) has ED50 equal to 10

Given item Cc1nc(Cl)c(Cl)n1CCCCN1CCN(c2ccccc2)CC1 [Example 36] , the value recorded as its ED50 is 7.6

Looking up Cc1nc(Cl)c(Cl)n1CCCCN1CCN(c2ccccc2Cl)CC1 [Example 38] , I see its ED50 listed as 1.3

Entry COc1ccccc1N1CCN(CCn2cc(Cl)cn2)CC1 [Example 41] , ED50 reported as 5

// data source = patent US5382586A
